- Test system: (CCUG)10 RNA (SEQ ID NO: 4)
- Test name: SPR binding to immobilized biotinylated RNA
- Measurement conditions: (CCUG)10
Property: Residence time (t1/2) for compound binding to RNA (min)
Numbers only, in min.

stdin: Please look up its Residence time (t1/2) for compound binding to RNA: CCc1nc2cc3ccccc3cc2cc1C(=O)N[C@@H](CCCCN)C(=O)N[C@@H](C/C=C/C[C@H](NC(=O)[C@H](CCCCN)NC(=O)c1cc2cc3ccccc3cc2nc1CC)C(=O)N1CCC[C@H]1C(=O)NCCCN)C(=O)N1CCC[C@H]1C(=O)NCCCN
stdout: 4.262

Would you mind listing Residence time (t1/2) for compound binding to RNA for each of the following compounds?
1. CCc1nc2cc3ccccc3cc2cc1C(=O)N1CCC[C@H]1C(=O)N[C@@H](C/C=C/C[C@H](NC(=O)[C@@H]1CCCN1C(=O)c1cc2cc3ccccc3cc2nc1CC)C(=O)N[C@@H](CCCCN)C(=O)NCCCN)C(=O)N[C@@H](CCCCN)C(=O)NCCCN
2. CCc1nc2cc3ccccc3cc2cc1C(=O)N1CCC[C@H]1C(=O)N[C@@H](C/C=C\C[C@H](NC(=O)[C@@H]1CCCN1C(=O)c1cc2cc3ccccc3cc2nc1CC)C(=O)N[C@@H](CCCCN)C(=O)NCCCN)C(=O)N[C@@H](CCCCN)C(=O)NCCCN
3. NCCCC[C@H](NC(=O)[C@H](C/C=C\C[C@H](NC(=O)[C@@H]1CCCN1)C(=O)N[C@@H](CCCCN)C(=O)NCCCN)NC(=O)[C@@H]1CCCN1)C(=O)NCCCN
4. CCc1nc2cc3ccccc3cc2cc1C(=O)N[C@@H](CCCCN)C(=O)N[C@@H](C/C=C\C[C@H](NC(=O)[C@H](CCCCN)NC(=O)c1cc2cc3ccccc3cc2nc1CC)C(=O)N1CCC[C@H]1C(=O)NCCCN)C(=O)N1CCC[C@H]1C(=O)NCCCN

stdout:
1. 11.702
2. 6.2772
3. 0.0387
4. 2.5497

* * *

- Tested on: (CUG)10 RNA (SEQ ID NO: 3)
- Test name: SPR binding to immobilized biotinylated RNA
- Measurement conditions: SPR, (CUG)10
Property: On-rates (kon) (M⁻¹ s⁻¹)
Numbers only, in M⁻¹ s⁻¹.

Examples from the recorded data:
stdin: Reported On-rates (kon), molecule CCc1nc2cc3ccccc3cc2cc1C(=O)N[C@@H](CCCCN)C(=O)N[C@@H](C/C=C\C[C@H](NC(=O)[C@H](CCCCN)NC(=O)c1cc2cc3ccccc3cc2nc1CC)C(=O)N1CCC[C@H]1C(=O)NCCCN)C(=O)N1CCC[C@H]1C(=O)NCCCN : ____
stdout: 24600

stdin: Sample CCc1nc2cc3ccccc3cc2cc1C(=O)N1CCC[C@H]1C(=O)N[C@@H](C/C=C/C[C@H](NC(=O)[C@@H]1CCCN1C(=O)c1cc2cc3ccccc3cc2nc1CC)C(=O)N[C@@H](CCCCN)C(=O)NCCCN)C(=O)N[C@@H](CCCCN)C(=O)NCCCN — what was its On-rates (kon)?
stdout: 28400

stdin: Name the reported On-rates (kon) value associated with the molecule CCc1nc2cc3ccccc3cc2cc1C(=O)N[C@@H](CCCCN)C(=O)N[C@@H](C/C=C/C[C@H](NC(=O)[C@H](CCCCN)NC(=O)c1cc2cc3ccccc3cc2nc1CC)C(=O)N1CCC[C@H]1C(=O)NCCCN)C(=O)N1CCC[C@H]1C(=O)NCCCN
stdout: 24200

stdin: Dear colleague, I am looking for the recorded On-rates (kon) of the following molecule: CCc1nc2cc3ccccc3cc2cc1C(=O)N1CCC[C@H]1C(=O)N[C@@H](C/C=C\C[C@H](NC(=O)[C@@H]1CCCN1C(=O)c1cc2cc3ccccc3cc2nc1CC)C(=O)N[C@@H](CCCCN)C(=O)NCCCN)C(=O)N[C@@H](CCCCN)C(=O)NCCCN
stdout: 27800

Consider the record given below.
stdin: Which On-rates (kon) is listed for NCCCC[C@H](NC(=O)[C@H](C/C=C\C[C@H](NC(=O)[C@@H]1CCCN1)C(=O)N[C@@H](CCCCN)C(=O)NCCCN)NC(=O)[C@@H]1CCCN1)C(=O)NCCCN ?
stdout: 132000
